Reported EC50 values for a set of compounds
tested on: HIV-IIIb IN T174I DE; assay: Antiviral assay in MT4 cells, HIV-IIIb IN T174I DE virus (from dose escalation passaging); assay type: cell-based, HIV-1; details: Human immunodeficiency virus 1, IIIB, MT4, 120 h, read-out: T174I DE EC50, MT4 cells, HIV-IIIb IN T174I DE (dose escalation), 5 days, CellTiter-Glo
Value Type: EC50 (nM)

1) Cc1cc2nc(-c3ccc4c(c3)c(C3CCOC3)nn4C)sc2c(-c2ccc(Cl)cc2)c1[C@H](OC(C)(C)C)C(=O)O (stereo partly drawn) [Compound 52] | 946
2) Cc1cc2nc(-c3cnc4c(n3)c(C3CCN(C5COC5)CC3)nn4C)sc2c(-c2ccc(Cl)cc2)c1[C@H](OC(C)(C)C)C(=O)O [Compound 118] | 737
3) Cc1cc2nc(-c3ccc4c(c3)c(C3CCN(C(=O)OC(C)(C)C)CC3)nn4C)sc2c(-c2ccc(Cl)cc2)c1[C@H](OC(C)(C)C)C(=O)O [Compound 23] | 356
4) Cc1cc2nc(-c3ccc4c(c3)c(N3CCOCC3)nn4C)sc2c(-c2ccc(Cl)cc2)c1[C@H](OC(C)(C)C)C(=O)O [Compound 144] | 3270
5) Cc1cc2nc(-c3ccc4c(c3)c(C3CN(C(C)(C)C)C3)nn4C)sc2c(-c2ccc(Cl)cc2)c1[C@H](OC1CC1)C(=O)O [Compound 60] | 692
6) COCC(=O)N1CCC(c2nn(C)c3ccc(-c4nc5cc(C)c([C@H](OC(C)(C)C)C(=O)O)c(-c6ccc(Cl)cc6)c5s4)cc23)C1 (stereo partly drawn) [Compound 75] | 496
7) COCCOC1CN(c2nn(C)c3ccc(-c4nc5cc(C)c([C@H](OC(C)(C)C)C(=O)O)c(-c6ccc(Cl)cc6)c5s4)cc23)C1 [Compound 134] | 2240
8) [2H]C([2H])([2H])n1nc(C2CCN(C3CN(C(C)=O)C3)CC2)c2nc(-c3nc4cc(C)c([C@H](OC(C)(C)C)C(=O)O)c(-c5ccc(Cl)cc5)c4s3)ccc21 [Compound 192] | 55
9) Cc1cc2nc(-c3ccc4c(c3)c(N3CC5(CN(C)C5)C3)nn4C)sc2c(-c2ccc(Cl)cc2)c1[C@H](OC(C)(C)C)C(=O)O [Compound 89] | 57000
10) CCN1CCN(c2nn(C)c3ccc(-c4nc5cc(C)c([C@H](OC(C)(C)C)C(=O)O)c(-c6ccc(Cl)cc6)c5s4)cc23)C1=O [Compound 82] | 3870
11) Cc1cc2nc(-c3ccc4[nH]nc(C5CCN(C6COC6)CC5)c4n3)sc2c(-c2ccc(Cl)cc2)c1[C@H](OC(C)(C)C)C(=O)O [Compound 174] | 587
12) COC(=O)N(C)C1CN(c2nn(C)c3ccc(-c4nc5cc(C)c([C@H](OC(C)(C)C)C(=O)O)c(-c6ccc(Cl)cc6)c5s4)cc23)C1 [Compound 102] | 1270

----------
System: HIV-IIIb IN T174I BT
Experiment: Antiviral assay in MT4 cells, HIV-IIIb IN T174I BT virus (from viral breakthrough)
Format: cell-based, HIV-1
Settings: Human immunodeficiency virus 1, IIIB, MT4, 120 h, read-out: T174I BT EC50, MT4 cells, HIV-IIIb IN T174I BT (viral breakthrough), 5 days, CellTiter-Glo
Description: Antiviral Assay in MT4 Cells […] Assay plates were then maintained in a humidified, 5% CO2 incubator at 37° C. […] Cell lysis was carried out by incubating at room temperature for 10 minutes and then chemiluminescence was read using an Envision plate reader (PerkinElmer). […]
Reported EC50 values for a set of compounds
Value Type: EC50 (nM)

1. CCn1nc(C2CCN([C@H]3CCN(C(=O)OC)C3)CC2)c2cc(-c3nc4cc(C)c([C@H](OC(C)(C)C)C(=O)O)c(-c5ccc(Cl)cc5)c4s3)ccc21 | 79
2. Cc1cc2nc(-c3ccc4c(c3)c(N3CC5CC(C3)N5C)nn4C)sc2c(-c2ccc(Cl)cc2)c1[C@H](OC(C)(C)C)C(=O)O | 57000
3. CC(=O)N1CC(N2CCC(c3nn(CCN(C)C)c4ccc(-c5nc6cc(C)c([C@H](OC(C)(C)C)C(=O)O)c(-c7ccc(Cl)cc7)c6s5)cc34)CC2)C1 | 587
4. Cc1cc2nc(-c3ccc4c(c3)c(C3CCN(C5CCC5)C3)nn4C)sc2c(-c2ccc(Cl)cc2)c1[C@H](OC(C)(C)C)C(=O)O (stereo partly drawn) | 2470
5. COCCN(C)C1CN(c2nn(C)c3ccc(-c4nc5cc(C)c([C@H](OC(C)(C)C)C(=O)O)c(-c6ccc(Cl)cc6)c5s4)cc23)C1 | 1590
6. Cc1cc2nc(-c3ccc4c(c3)c(N3CC[C@H](N(C)C)C3)nn4C)sc2c(-c2ccc(Cl)cc2)c1[C@H](OC(C)(C)C)C(=O)O | 1010
